Reference for the values: patent US20170052170A1

Target: sweet taste receptor (T1R2/T1R3) (Homo sapiens, UniProt Q7RTX0+Q8TE23, C757R/I191V/I486V/R317G)
Construct: expressed in transfected cells; host or cells: HEK293T (ATCC CRL-11268)
Sequence (Q8TE23 20-839 I191V/R317G/I486V): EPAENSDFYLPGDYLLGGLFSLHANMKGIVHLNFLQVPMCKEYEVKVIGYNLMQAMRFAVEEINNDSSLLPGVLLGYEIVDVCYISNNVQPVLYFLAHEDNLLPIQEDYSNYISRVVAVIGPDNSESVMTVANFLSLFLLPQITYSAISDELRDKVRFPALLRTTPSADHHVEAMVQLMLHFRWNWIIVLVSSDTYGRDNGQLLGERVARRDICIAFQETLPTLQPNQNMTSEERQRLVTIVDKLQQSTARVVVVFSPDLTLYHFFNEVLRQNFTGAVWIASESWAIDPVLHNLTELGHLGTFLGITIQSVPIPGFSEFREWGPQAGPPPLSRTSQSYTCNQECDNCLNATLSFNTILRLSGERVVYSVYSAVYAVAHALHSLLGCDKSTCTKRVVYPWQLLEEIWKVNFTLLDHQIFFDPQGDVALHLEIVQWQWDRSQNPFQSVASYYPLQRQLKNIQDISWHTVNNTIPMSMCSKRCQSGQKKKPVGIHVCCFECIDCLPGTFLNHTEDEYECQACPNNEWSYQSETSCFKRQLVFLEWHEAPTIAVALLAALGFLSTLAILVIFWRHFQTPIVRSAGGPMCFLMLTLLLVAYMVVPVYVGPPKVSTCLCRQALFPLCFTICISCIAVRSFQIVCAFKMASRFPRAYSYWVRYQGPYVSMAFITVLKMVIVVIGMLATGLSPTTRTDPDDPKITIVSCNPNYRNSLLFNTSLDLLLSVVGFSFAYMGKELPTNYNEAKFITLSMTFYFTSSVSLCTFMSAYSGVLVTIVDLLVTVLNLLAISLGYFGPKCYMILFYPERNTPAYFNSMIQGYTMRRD
Sequence (Q7RTX0 21-852 C757R): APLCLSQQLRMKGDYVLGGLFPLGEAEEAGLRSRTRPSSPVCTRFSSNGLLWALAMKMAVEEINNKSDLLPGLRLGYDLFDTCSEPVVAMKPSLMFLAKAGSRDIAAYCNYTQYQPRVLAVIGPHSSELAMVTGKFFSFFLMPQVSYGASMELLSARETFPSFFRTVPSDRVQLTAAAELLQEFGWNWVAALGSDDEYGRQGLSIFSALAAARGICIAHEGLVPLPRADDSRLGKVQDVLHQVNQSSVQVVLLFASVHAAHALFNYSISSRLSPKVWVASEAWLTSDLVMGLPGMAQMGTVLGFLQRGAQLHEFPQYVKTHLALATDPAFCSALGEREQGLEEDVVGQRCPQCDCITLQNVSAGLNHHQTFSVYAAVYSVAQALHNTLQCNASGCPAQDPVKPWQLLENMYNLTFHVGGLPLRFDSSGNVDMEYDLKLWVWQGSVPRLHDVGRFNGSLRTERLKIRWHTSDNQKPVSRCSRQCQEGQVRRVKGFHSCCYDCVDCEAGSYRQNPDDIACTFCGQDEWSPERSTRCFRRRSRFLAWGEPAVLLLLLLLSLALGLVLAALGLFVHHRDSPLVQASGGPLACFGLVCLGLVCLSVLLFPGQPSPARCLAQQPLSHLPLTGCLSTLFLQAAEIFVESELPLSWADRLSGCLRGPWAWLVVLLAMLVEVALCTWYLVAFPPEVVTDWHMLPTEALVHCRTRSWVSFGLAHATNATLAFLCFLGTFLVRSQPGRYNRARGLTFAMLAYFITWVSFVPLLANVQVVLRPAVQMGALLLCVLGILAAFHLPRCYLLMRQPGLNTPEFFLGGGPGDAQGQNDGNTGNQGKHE
Assay: Sweet cell-based calcium flux assay, HEK293T cells expressing T1R2, T1R3 and mouse Gα15
pEC50: −log10 of the molar value.
Reported Endpoint: pEC50

Smiles String: O=C(CO)[C@@H](O)[C@H](O)[C@H](O)CO
Endpoint Result: > 2.37

###

Target: sweet taste receptor (T1R2/T1R3) (Homo sapiens, UniProt Q7RTX0+Q8TE23, C757R/I191V/I486V/R317G)
Construct: expressed in transfected cells; host or cells: HEK293T (ATCC CRL-11268)
Assay: Sweet cell-based calcium flux assay, HEK293T cells expressing T1R2, T1R3 and mouse Gα15
Details: FIG. 24, one assay; read-out: EC50 values (calcium flux)

Smiles String: OC[C@H]1O[C@@](CO)(O[C@H]2O[C@H](CO)[C@@H](O)[C@H](O)[C@H]2O)[C@@H](O)[C@@H]1O
EC50: < 3.5 mM

###

Target: GABAA α2β3γ2s (α2) (Homo sapiens, UniProt P18507+P28472+P47869, A343T)
Construct: expressed in transfected cells; host or cells: CHO
Sequence (P47869 29-451 A343T): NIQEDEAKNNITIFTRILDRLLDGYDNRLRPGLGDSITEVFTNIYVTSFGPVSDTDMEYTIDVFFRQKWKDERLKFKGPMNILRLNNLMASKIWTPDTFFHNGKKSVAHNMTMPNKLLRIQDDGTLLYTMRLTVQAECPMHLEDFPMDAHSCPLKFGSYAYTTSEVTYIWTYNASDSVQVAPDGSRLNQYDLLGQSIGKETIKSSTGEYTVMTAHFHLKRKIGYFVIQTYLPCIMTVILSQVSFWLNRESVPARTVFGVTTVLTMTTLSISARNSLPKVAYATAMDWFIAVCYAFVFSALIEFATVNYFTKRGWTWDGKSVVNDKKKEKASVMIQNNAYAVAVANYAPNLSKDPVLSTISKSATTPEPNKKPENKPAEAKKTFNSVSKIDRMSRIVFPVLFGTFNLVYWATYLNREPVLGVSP
Sequence (P28472 26-473, stated change not applied): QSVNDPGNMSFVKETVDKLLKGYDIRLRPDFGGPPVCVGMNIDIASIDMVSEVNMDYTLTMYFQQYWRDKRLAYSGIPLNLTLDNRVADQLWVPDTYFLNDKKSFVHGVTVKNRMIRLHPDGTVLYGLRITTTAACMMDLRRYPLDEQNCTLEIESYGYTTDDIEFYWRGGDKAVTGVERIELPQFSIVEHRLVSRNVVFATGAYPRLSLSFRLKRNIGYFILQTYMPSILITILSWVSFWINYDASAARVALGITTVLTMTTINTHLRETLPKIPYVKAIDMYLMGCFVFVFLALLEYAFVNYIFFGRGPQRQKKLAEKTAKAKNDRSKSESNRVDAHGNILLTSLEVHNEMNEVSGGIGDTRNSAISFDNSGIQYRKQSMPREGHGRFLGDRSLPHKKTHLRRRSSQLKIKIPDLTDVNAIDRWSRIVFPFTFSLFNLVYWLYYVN
Sequence (P18507 40-467 isoform P18507-1 limits assumed, stated change not applied): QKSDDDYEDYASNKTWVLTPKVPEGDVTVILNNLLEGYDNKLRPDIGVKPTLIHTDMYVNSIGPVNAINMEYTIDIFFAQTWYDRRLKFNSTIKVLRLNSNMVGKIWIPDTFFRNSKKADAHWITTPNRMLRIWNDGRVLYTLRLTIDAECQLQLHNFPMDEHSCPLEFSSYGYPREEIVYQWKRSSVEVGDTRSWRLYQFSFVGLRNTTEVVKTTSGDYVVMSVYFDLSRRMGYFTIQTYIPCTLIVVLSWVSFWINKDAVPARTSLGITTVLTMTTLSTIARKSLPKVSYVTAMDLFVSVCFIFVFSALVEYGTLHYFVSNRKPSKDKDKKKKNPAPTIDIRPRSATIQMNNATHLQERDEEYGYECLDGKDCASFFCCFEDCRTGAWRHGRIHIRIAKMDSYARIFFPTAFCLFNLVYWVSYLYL
Format: cell-based
pEC50: −log10 of the molar value.

Compound: CC(=O)C1CCC2C3CCC4CC(O)CCC4(C)C3CCC12C (stereo not drawn) [5-alpha-Pregnan-3alpha-ol-20-one]
pEC50: 6.85

###

Molecular target: GABAA α3β3γ2s (α3) (Homo sapiens, UniProt P18507+P28472+P34903)
Sequence (P34903 29-492, one chain of several): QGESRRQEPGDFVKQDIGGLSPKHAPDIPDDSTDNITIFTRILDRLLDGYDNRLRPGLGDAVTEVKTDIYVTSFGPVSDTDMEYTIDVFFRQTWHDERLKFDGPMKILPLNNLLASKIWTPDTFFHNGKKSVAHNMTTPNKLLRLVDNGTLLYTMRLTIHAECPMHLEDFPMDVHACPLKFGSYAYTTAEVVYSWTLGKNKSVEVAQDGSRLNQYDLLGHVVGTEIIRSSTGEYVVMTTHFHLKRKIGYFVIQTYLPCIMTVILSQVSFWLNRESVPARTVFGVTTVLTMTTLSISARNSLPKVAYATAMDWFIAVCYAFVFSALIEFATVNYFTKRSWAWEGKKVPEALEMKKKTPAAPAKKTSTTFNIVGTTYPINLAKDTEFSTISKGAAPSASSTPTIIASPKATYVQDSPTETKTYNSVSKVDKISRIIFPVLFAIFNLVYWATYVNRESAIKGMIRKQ
Conditions: CHO cells, membrane potential dye
pEC50: −log10 of the molar value.
pEC50 values for the molecules below.
Reported Endpoint: pEC50

Molecule: CC12CCC(O)CC1CCC1C2CCC2(C)C(C(=O)CO)CCC12 (stereo not shown)
Endpoint Result: 7.10
//
Molecule: CC(=O)C1CCC2C3CCC4CC(O)CCC4(C)C3CCC12C (stereo not shown)
Endpoint Result: 7.10
//
Molecule: COc1cc(/C=C(\C#N)C(=O)c2ccc(O)c(O)c2)cc(I)c1O
Endpoint Result: 5.66
//
Molecule: CC(C)(C)c1cc(C=C(C#N)C#N)cc(C(C)(C)C)c1O
Endpoint Result: 5.30

###

# EC50 annotations
Biological target: GABAA α1β3γ2s (α1) (Homo sapiens, UniProt P14867+P18507+P28472)
Sequence (P14867 28-456): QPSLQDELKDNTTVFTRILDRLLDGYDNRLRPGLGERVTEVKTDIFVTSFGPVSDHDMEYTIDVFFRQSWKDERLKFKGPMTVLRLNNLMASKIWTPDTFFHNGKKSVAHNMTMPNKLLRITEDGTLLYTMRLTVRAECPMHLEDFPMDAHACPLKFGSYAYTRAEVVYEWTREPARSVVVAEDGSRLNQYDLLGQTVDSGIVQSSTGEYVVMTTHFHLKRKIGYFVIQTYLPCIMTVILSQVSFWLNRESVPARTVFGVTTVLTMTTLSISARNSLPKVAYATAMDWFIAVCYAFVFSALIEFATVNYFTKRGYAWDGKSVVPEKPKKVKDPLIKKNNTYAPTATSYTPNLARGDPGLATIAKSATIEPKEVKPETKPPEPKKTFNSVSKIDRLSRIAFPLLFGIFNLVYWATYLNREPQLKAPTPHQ
Sequence (P28472 26-473): as the sequence (P28472 26-473, stated change not applied) above
Sequence (P18507 40-467 isoform P18507-1 limits assumed): as the sequence (P18507 40-467 isoform P18507-1 limits assumed, stated change not applied) above
Conditions: CHO cells, membrane potential dye

Compound: COc1cc(/C=C(\C#N)C(=O)c2ccc(O)c(O)c2)cc(I)c1O
EC50: 3.5 µM
//
Compound: CC(C)(C)c1cc(C=C(C#N)C#N)cc(C(C)(C)C)c1O
EC50: 1.8 µM
//
Compound: CC12CCC(O)CC1CCC1C2CCC2(C)C(C(=O)CO)CCC12 (stereo not shown)
EC50: 0.382 µM
//
Compound: CC(=O)C1CCC2C3CCC4CC(O)CCC4(C)C3CCC12C (stereo not shown)
EC50: 0.692 µM
